experimentalProtocol: self-splicing fitness, log relative to wild type (ln ratio); higher = more splicing; Tetrahymena group I intron in knt gene, E. coli kanamycin selection, DiMSum; sequences stand for … in CUCUCU…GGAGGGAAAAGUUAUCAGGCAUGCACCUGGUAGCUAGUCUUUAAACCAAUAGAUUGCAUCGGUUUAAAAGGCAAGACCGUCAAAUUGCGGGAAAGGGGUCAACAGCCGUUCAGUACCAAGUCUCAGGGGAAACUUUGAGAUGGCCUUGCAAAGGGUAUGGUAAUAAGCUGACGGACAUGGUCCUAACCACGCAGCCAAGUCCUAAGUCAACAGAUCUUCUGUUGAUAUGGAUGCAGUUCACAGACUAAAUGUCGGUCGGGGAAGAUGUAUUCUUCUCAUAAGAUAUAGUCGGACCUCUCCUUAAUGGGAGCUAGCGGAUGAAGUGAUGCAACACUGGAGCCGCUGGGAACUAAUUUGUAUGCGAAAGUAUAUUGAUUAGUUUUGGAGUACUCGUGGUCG;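 also: selection with 25 µg/mL kanamycin versus none on LB agar overnight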
conditionSet: 30 °C
reportedMetric: self-splicing fitness (ln)

{"sequenceRecord": "GAGAAGCAAUAUUACGAUCC", "measuredValue": -1.9}
{"sequenceRecord": "AUUCAGCAAUAUUACGCAGC", "measuredValue": -1.82}
{"sequenceRecord": "UGUGAGCAAUAUUACGGGGG", "measuredValue": -3.23}
{"sequenceRecord": "GAUUAGCAAUAUUACGUACU", "measuredValue": -0.632}
{"sequenceRecord": "GUUGAGCAAUAUUACGCGAG", "measuredValue": -1.35}
{"sequenceRecord": "CAUAAGCAAUAUUACGUUAA", "measuredValue": -2.6}
{"sequenceRecord": "UUGGAGCAAUAUUACGCUCA", "measuredValue": -1.16}
{"sequenceRecord": "UACCAGCAAUAUUACGCUGA", "measuredValue": -2.43}
{"sequenceRecord": "GAUUAGCAAUAUUACGCGUA", "measuredValue": -1.01}
{"sequenceRecord": "UAAGAGCAAUAUUACGACGC", "measuredValue": -2.96}
{"sequenceRecord": "GUGUAGCAAUAUUACGAACG", "measuredValue": -1.76}
{"sequenceRecord": "AUCGAGCAAUAUUACGCCAU", "measuredValue": -2.34}
{"sequenceRecord": "CGCGAGCAAUAUUACGGAGA", "measuredValue": -2.25}
{"sequenceRecord": "GUUUAGCAAUAUUACGCGUU", "measuredValue": -1.75}
{"sequenceRecord": "CCGGAGCAAUAUUACGUGUG", "measuredValue": -1.68}
{"sequenceRecord": "CUUAAGCAAUAUUACGUGAC", "measuredValue": -1.91}
